Test system: MCF7 breast
Assay: NCI-60 one-dose screen, 48 h
Conditions: 10 µM unless noted
The panel holds about 83,000 compounds, 20% with a hit somewhere; the sample as a whole holds those more often. Activity calls are given as the source filed them. How the source made its calls: active means growth percent below 10; inactive means the rest.
Tick one outcome: y = active, n = inactive

// query Record lookup: outcome of this test for N#Cc1c(-c2ccccc2)nc(SCc2nnc(-c3ccc(Cl)cc3)o2)[nH]c1=O ?
// result n

// query Next molecule up: Cc1ccc2c(-n3nc(C#N)c(C#N)c3N)cc(=O)[nH]c2c1
// result n

// query Next molecule up: COc1ccc(/C=C2\COc3ccc(O)cc3C2=O)cc1
// result n

// query Next molecule up: C=C1C(=O)O[C@H]2[C@H]1CC/C(COC(=O)NCc1ccc(Cn3c(=O)sn(-c4ccc(C#N)cc4)c3=O)cc1)=C\CC[C@@]1(C)O[C@@H]21
// result n

// query Next molecule up: N#C/C(=C\c1ccc([N+](=O)[O-])cc1)n1nnc2cc(F)c(F)cc21
// result n

// query Next molecule up: COc1ccc(/C=C/C(c2cc(OC)c(OC)c(OC)c2)n2ccnc2)cc1O (stereo not drawn)
// result n

// query Next molecule up: C=C(c1ccc(OC)c(/C=C/C(=O)c2ccc3c(c2)OCO3)c1)c1cc(OC)c(OC)c(OC)c1
// result n

// query Next molecule up: C=C(CNCCO)[C@@H]1CC[C@]2(CO)CC[C@]3(C)[C@H](CC[C@@H]4[C@@]5(C)CCC(N)C(C)(C)[C@@H]5CC[C@]43C)[C@@H]12 (stereo partly drawn)
// result y

// query Next molecule up: COC(=O)c1ccc(NC(=O)Nc2ccc(C(=O)OC)cc2)cc1
// result n

// query Next molecule up: CCOC(=O)c1c(C)nc2c(c1N)/C(=C/c1ccc(OC)cc1)C(=O)N2Cc1ccccc1
// result n

// query Next molecule up: CCN1C2CCC1/C(=C\c1ccc(F)cc1)C(=O)/C2=C/c1ccc(F)cc1
// result n

// query Next molecule up: O=C1/C(=C2\SC(=S)N(C3CC3)C2=O)SC(=S)N1C1CC1
// result n

// query Next molecule up: COc1cc(/C=C/C(=O)/C=C(O)/C=C/c2ccc(OC(=O)C34CC5CC(CC(C5)C3)C4)c(OC)c2)ccc1OC(=O)C12CC3CC(CC(C3)C1)C2
// result n

// query Next molecule up: COc1cc(OC)c(/C=C/C(=O)c2c(O)cc(OC)c(C3CCN(C)CC3)c2OC)c(OC)c1
// result y

// query Next molecule up: OCCNCCNC(Cc1ccc(Cl)cc1)c1ccccc1 (stereo not drawn)
// result n

// query Next molecule up: Cc1[nH]c(C2CC(c3ccc(C(F)(F)F)c(F)c3)=NN2c2ccccc2)c(C)c1C(=O)NCC(F)(F)F (stereo not drawn)
// result n

// query Next molecule up: CC1=C2[C@@H](CC1)[C@]1(C)O[C@@](C3CCCCC3)(C[C@H]1OC(=O)CO)[C@H]2OC(=O)/C=C/c1ccccc1
// result n

// query Next molecule up: O=c1cc(-c2ccccc2)[nH]c2ncc(-c3ccc(F)cc3)n12
// result n

// query Next molecule up: FC(F)(F)Oc1cccc(-c2cnc3ccc(-c4ccncc4)nn23)c1
// result n

// query Next molecule up: O=C(NNc1cnccn1)c1nc2cc(F)ccc2n2cccc12
// result y

// query Next molecule up: c1ccc2c(c1)CCCc1nnc3nc4ccccc4n3c1-2
// result n

// query Next molecule up: COc1ccc(C(=O)c2cc3c(N)c(C(=O)Nc4ccccc4)sc3nc2C)cc1
// result n

// query Next molecule up: CC1(C)OB(O)c2cc(-c3nc4ccc5[nH]ncc5c4c4c3CCCC4)ccc21
// result n

// query Next molecule up: CCCCC#Cc1c(I)n(C)c(=O)[nH]c1=O
// result n

// query Next molecule up: O=C(/C=C/c1ccc(Cl)cc1)c1cccc(OCCCOc2cccc(C(=O)/C=C/c3ccc(Cl)cc3)c2)c1
// result n

// query Next molecule up: N#C/C(=C\c1ccc(-c2cccc(C(F)(F)F)c2)o1)c1ccccc1
// result n

// query Next molecule up: CC1(C)CC2=C3C=C[C@@H]4[C@@]5(C)CCC(=O)C(C)(C)[C@@H]5CC[C@@]4(C)[C@]3(C)CC[C@@]2(C(=O)O)C[C@H]1O
// result n

// query Next molecule up: O=[N+]([O-])c1ccc(-c2cn3nc(-c4c[nH]c5ccccc45)sc3n2)cc1
// result n

// query Next molecule up: O=C(Nc1ccc(Br)cc1)C1=NCCCCN1
// result n

// query Next molecule up: O=C(O)c1cn(C2CC2)c2cc(N3CCN(C(=O)Nc4nc(-c5ccc(Br)cc5)cs4)CC3)c(F)cc2c1=O
// result y

// query Next molecule up: Nc1[nH]n2cc(-c3ccc(F)cc3)nc2c1N=Nc1ccc(S(N)(=O)=O)cc1
// result n

// query Next molecule up: CCN1C(=O)N(CC)C2C1N=C(SCc1ccc(Cl)cc1)N2/N=C/C=C/c1ccccc1OC (stereo not drawn)
// result n

// query Next molecule up: Cc1ccc(-c2nc(SCc3nc4cc(Cl)c(Cl)cc4[nH]3)[nH]c(=O)c2C#N)cc1
// result n

// query Next molecule up: CCc1ccc(CCC(=O)Nc2ncc(Cc3ccccc3)s2)o1
// result n

// query Next molecule up: CCN1C(=O)N(CC)C2C1NN=c1s/c(=C3\C(=O)N(CCC(C)C)c4ccccc43)c(=O)n12 (stereo not drawn)
// result n

// query Next molecule up: C/C(=N\O)[C@@H]1CC[C@]2(CO)CC[C@]3(C)[C@H](CC[C@@H]4[C@@]5(C)CCCNC(C)(C)[C@@H]5CC[C@]43C)[C@@H]12
// result n

// query Next molecule up: Cc1cccc(N2CCC(=O)NC2=S)c1
// result n

// query Next molecule up: COC1=C(C)C(=O)N2[C@@H]1[C@H](c1ccccc1)OC21C=CC(=O)C=C1
// result y

The values you see were collected from PubChem BioAssay (NCI).
